assay-remarks: chemical genetic growth profiling, strain panel (AID 1159580);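 note: tested at 20 µM; growth read once vehicle control cultures reached saturation at 30 °C; lower values mean less growth of the strain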
assay-conditions: S. cerevisiae deletion strains, growth OD, locus YLR113W, strain HOG1, active compounds read low
The campaign covered roughly 5,500 compounds. About 2,000 (36%) were called active. About 18% were inconclusive and are not listed. Some of the results follow. *1 amine or outer side, *2 acyl side, *3 side chain or, on linkers, in order; H or OH if unused. Where a SMILES comes first, the peptide text is derived from it. Bridges are numbered along the chain shown (N, C = ends). [ ]: non-standard residue; d: D form. The star is where a group is joined. ξ: configuration not given here. ΔAla(E,3-NHCONH2) = NC(=O)N/C=C(/N)C(=O)O; X2 = NC1=NCCC(C(N[*:1])C(=O)[*:2])N1; ξβ3hOrn = NCCCC(N)CC(=O)*; Dap = NC[CH](N)C(=O)O
Each record is given T if its reported normalized growth is strictly below 1. Records at or above 1 are given F.

Task: Find out if reported normalized growth for CS/C(Nc1cccc(C(F)(F)F)c1)=C(/C#N)S(=O)(=O)c1ccc(Cl)cc1 is less than 1
Result: T

Task: Could you please tell me whether normalized growth recorded for O=C1c2ccccc2C(=O)C1c1ccc(Br)cc1 is less than 1?
Result: T

Task: API: query returns whether the compound falls strictly under 1 in normalized growth. Query: OC(CSc1ccccc1)CN1CCN(c2nc(-c3ccccc3)ns2)CC1 (centres undefined)
Result: T

Task: Say whether its normalized growth is strictly beneath 1. Entry: CCOc1ccc(C(=O)c2ccc(O)c(O)c2O)cc1
Result: T

Task: Determine whether this compound shows normalized growth lower than 1 (ties excluded): CCOC(=O)c1cnc2c(c(C)nn2C)c1Sc1nnc(SC)s1
Result: T

Task: Given CNS(=O)(=O)Cc1ccc2[nH]cc(CCN(C)C)c2c1 , is recorded normalized growth strictly lower than 1?
Result: T

Task: Strictly below 1 in normalized growth? Cc1ccc(OCc2n[nH]c(=S)n2Cc2ccccc2)c2c1CCC2
Result: T

Task: Is 1 strictly greater than the compound's reported normalized growth? compound: CNS(=O)(=O)c1ccc(NC(=O)c2ccccc2C(=O)O)cc1
Result: T

Task: Please check: normalized growth for c1ccc([C@H]2CN3CCSC3=N2)cc1 , strictly under 1 or not?
Result: F

Task: Is normalized growth strictly under 1 for the entry CC[C@H]1CN2CCc3cc(OC)c(OC)cc3C2C[C@@H]1CC1NCCc2cc(OC)c(OC)cc21 (some centres undefined) ?
Result: F

Task: normalized growth strictly < 1 for this compound? OC(c1cc(C(F)(F)F)nc2c(C(F)(F)F)cccc12)C1CCCCN1 (centres undefined)
Result: T

Task: Please check: normalized growth for N#C/C(=N/Nc1cccc(C(F)(F)F)c1)C(=O)c1csc(-c2cccnc2)n1 , strictly under 1 or not?
Result: T

Task: normalized growth under 1? Item: C[C@]12CCC(=O)C=C1CCC1C2C(=O)C[C@@]2(C)C1CC[C@]2(O)C(=O)CO (some centres undefined)
Result: T

Task: Consider CCCCCN(CCCCC)C(=O)C(CCC(=O)O)NC(=O)c1ccc(Cl)c(Cl)c1 (centres undefined) . Does its normalized growth lie strictly below 1?
Result: T

Task: Below 1 on normalized growth? Entry O=C1c2ccccc2C(=O)C1c1ccccc1
Result: T

Task: Consider the compound COc1ccc(C2C(=O)c3ccccc3C2=O)cc1 . Is its normalized growth strictly less than 1?
Result: T

Task: Just wondering, is normalized growth of CC[C@H]1OC(=O)[C@H](C)[C@@H](O[C@H]2C[C@@](C)(OC)[C@@H](O)[C@H](C)O2)[C@H](C)[C@@H](O[C@@H]2O[C@H](C)C[C@H](N(C)C)[C@H]2O)[C@](C)(O)C[C@@H](C)[C@@H]2N[C@@H](COCCOC)O[C@H]([C@H]2C)[C@]1(C)O below 1?
Result: F

Task: normalized growth under 1? Item: Clc1ccc(N/N=C\c2sccc2Oc2ccccc2)cc1
Result: T

Task: For this compound, is normalized growth lower than 1? CSc1nnc(COc2ccc(C)c3c2CCC3)n1-c1ccccc1
Result: T

Task: In plain terms, does O=C(Nc1cc2c(s1)-c1cc(Cl)ccc1SC2)Oc1ccccc1 come in under 1 for normalized growth?
Result: T

Task: I'd appreciate it if you could check whether COc1cc(NS(=O)(=O)c2ccc(N)cc2)ncn1 has normalized growth smaller than 1.
Result: T

Task: Please state whether normalized growth is below 1 for CCOc1ccc(C(=O)c2cc(O)c(OC)c(OC)c2O)cc1
Result: T

Task: hey, is normalized growth for NCCCC(N)CC(=O)NCC1NC(=O)C(CO)NC(=O)C(N)CNC(=O)C(C2CCN=C(N)N2)NC(=O)/C(=C\NC(N)=O)NC1=O (stereo not drawn) (H-[Dap]S[Dap](ξβ3hOrn)[ΔAla(E,3-NHCONH2)][X2]; lactam 1-C; configuration not given here) lower than 1 or not?
Result: F

Task: Strictly below 1: is that where normalized growth of CN[C@@H]1[C@@H](O[C@H]2O[C@H](CO)[C@@H](N)[C@H](O)[C@H]2O)O[C@H]2C[C@@H](N)[C@H](O[C@H]3[C@H](O)[C@@H](O)[C@H](N)C[C@@H]3N)O[C@@H]2[C@@H]1O sits?
Result: T
